# Test system: HCT-116 colon
# test name: NCI tumour cell line growth inhibition, 48 h
Give measured TGI for each item. Keep answers brief.

*Q* Give recorded TGI. CC(C)(Cl)C(Br)CCC(C)(Cl)C(Br)CBr (stereo not given)
*A* 47.5 µM

*Q* Give recorded TGI. O=C1NC(NNc2ccccc2)=N/C1=C\c1ccccc1O
*A* > 100 µM

*Q* Give recorded TGI. CCCCS(=O)CCC(N)P(=O)(O)O (stereo not given)
*A* > 100 µM

*Q* Give recorded TGI. CCC(C)n1ncn(-c2ccc(N3CCN(c4ccc(OCC5COC(Cn6cncn6)(c6ccc(Cl)cc6Cl)O5)cc4)CC3)cc2)c1=O (stereo not given)
*A* > 100 µM

*Q* Give recorded TGI. O=C(C=P(c1ccccc1)(c1ccccc1)c1ccccc1)c1ccc(-c2cccc([N+](=O)[O-])c2)s1
*A* > 100 µM

###

# Tested on: SR leukemia
# test name: NCI tumour cell line growth inhibition, 48 h
Give measured GI50 for each item. Keep answers brief.

*Q* Enter GI50 (test system SR leukemia) for CCC[CH2][Sn]1([CH2]CCC)[O]N=C(c2ccccc2)C(c2ccccc2)[O]1 (stereo not drawn)
*A* 574 nM

*Q* Enter GI50 (test system SR leukemia) for OC[C@H]1C[C@](O)(c2ccc(Cl)cc2)[C@@H](c2ccc(Cl)cc2)O1
*A* 202 nM

*Q* Enter GI50 (test system SR leukemia) for C=C1C(=O)O[C@@H]2C[C@@H]1CC/C(C)=C/CC/C(C)=C/CC[C@@]2(C)O
*A* 1630 nM

*Q* Enter GI50 (test system SR leukemia) for Cc1cc(I)cc(CN(C)CCCN2CCCCCCC2)c1O
*A* 2110 nM

*Q* Enter GI50 (test system SR leukemia) for COc1ccc(-n2cc(-c3cc(OC)c(OC)c(OC)c3)c(C(=O)C(F)(F)F)c2C)cc1
*A* 4540 nM

*Q* Enter GI50 (test system SR leukemia) for COc1cnc2c(c1)C(=O)c1c-2n(CCCNC(C)C)c(=O)c2cc(Cl)ccc12
*A* 57.7 nM

*Q* Enter GI50 (test system SR leukemia) for Cn1cc(CO)c2c1C(=O)C=C(N1CC1)C2=O
*A* < 10 nM

*Q* Enter GI50 (test system SR leukemia) for CCN(CC)c1ccc2c(c1)OC(N)=C(C#N)C2c1cc(OC)c2c(c1)OCO2 (stereo not drawn)
*A* < 17 nM

*Q* Enter GI50 (test system SR leukemia) for Cc1ccc(C)c(C2=C(c3cn(C)c4ccccc34)C(=O)NC2=O)c1
*A* 5050 nM

*Q* Enter GI50 (test system SR leukemia) for CCN1CCN(C(c2ccc(C(F)(F)F)cc2)c2ccc3cccnc3c2O)CC1 (stereo not drawn)
*A* 835 nM

*Q* Enter GI50 (test system SR leukemia) for C=C(CNCc1ccccc1)c1ccc(C(=O)Nc2ccccc2N)cc1
*A* 3540 nM

*Q* Enter GI50 (test system SR leukemia) for O=C1/C(=C/c2ccc(Br)cc2)COc2ccc(O)c(O)c21
*A* 452 nM

*Q* Enter GI50 (test system SR leukemia) for C=C1CC[C@@H]2[C@](C)(COC(C)=O)[C@H](OC(C)=O)CC[C@@]2(C)[C@@H]1CC(Sc1ccccc1)C1=CCOC1=O (stereo partly drawn)
*A* 553 nM

###

# Tested on: DU-145 prostate
# test name: NCI tumour cell line growth inhibition, 48 h
Give measured TGI for each item. Keep answers brief.

*Q* Give recorded TGI. CC1(c2cccs2)CC(c2cccs2)=C(C#N)C(=C(C#N)C#N)N1 (stereo unspecified)
*A* 28.9 µM

*Q* Give recorded TGI. OC1[C@@H]2[C@@H](O)[C@H](O)[C@@H](O)N2C[C@@H]1O (stereo partly specified)
*A* > 100 µM

*Q* Give recorded TGI. Cc1cc(C)n2nc3nc(N)c(C#N)c(-c4ccccc4)c3c2n1
*A* > 100 µM

*Q* Give recorded TGI. Nc1ncnc2c1ccn2C/C=C\CO
*A* > 100 µM

*Q* Give recorded TGI. CN1CCN(CCOc2ccc(-c3cnc4c(-c5ccccc5F)cnn4c3)cc2)CC1
*A* 3.07 µM

*Q* Give recorded TGI. CN(CC(=O)O)c1ncc2c(n1)-c1ccccc1SC2
*A* > 100 µM

###

# Tested on: MOLT-4 leukemia
# test name: NCI tumour cell line growth inhibition, 48 h
observed property: TGI

*Q* Give recorded TGI. O=C(/C=C/c1ccccc1O)c1ccccc1O
*A* > 100 µM

*Q* Give recorded TGI. COC(=O)c1cc2c3c(ccc2[nH]1)N(C(=O)c1cc2cc(OC)c(OC)c(OC)c2[nH]1)CC3CCl (configuration not stated)
*A* > 100 µM

*Q* Give recorded TGI. COc1cc(N(CCC#N)CCC#N)ccc1/C(N=Nc1ccc([N+](=O)[O-])cc1)=N/NC(=O)c1cc(Br)ccc1O
*A* 128 µg/mL

*Q* Give recorded TGI. O=C(CCn1[nH]c(=O)c(Cl)c(Cl)c1=O)NO
*A* > 100 µM

*Q* Give recorded TGI. COc1ccc(N2C(=O)CC(C3CC(C(C)(C)C)CCC3=O)C2=O)cc1 (configuration not stated)
*A* > 100 µM

*Q* Give recorded TGI. CC(=O)Nc1ccc(N2C(=O)/C(=C\c3cccc(Oc4ccccc4)c3)S(=O)(=O)C2c2ccccc2)cc1 (configuration not stated)
*A* 98.4 µM

*Q* Give recorded TGI. CC(=O)Nc1ccc(C(=O)NN2C(=O)CSC2c2ccc([N+](=O)[O-])cc2)cc1 (configuration not stated)
*A* > 100 µM

###

Give measured TGI for each item. Keep answers brief.
# System: PC-3 prostate
# test name: NCI tumour cell line growth inhibition, 48 h

*Q* Enter TGI (test system PC-3 prostate) for COc1cc(C(=O)n2c3ccc(Br)cc3c3nc4ccccc4nc32)cc(OC)c1OC
*A* > 100 µM

*Q* Enter TGI (test system PC-3 prostate) for COc1cc(C2CC(c3cccc(Br)c3)=NN2C(C)=O)cc(OC)c1OC (configuration not stated)
*A* 36.2 µM

*Q* Enter TGI (test system PC-3 prostate) for COCC1OC(Sc2ccccc2)C(O)C(OC)C1OC (configuration not stated)
*A* > 100 µM

*Q* Enter TGI (test system PC-3 prostate) for COc1ccc(/C=C(/C(=O)N2CCN(c3ccccc3)CC2)c2cc(OC)c(OC)c(OC)c2)cc1O
*A* > 100 µM

*Q* Enter TGI (test system PC-3 prostate) for Cc1cc(I)cc(CN(C)CCCN2CCCCCCC2)c1O
*A* 32.7 µM

*Q* Enter TGI (test system PC-3 prostate) for Cc1cc(C)n2nc3nc(N)c(C#N)c(-c4ccccc4)c3c2n1
*A* > 100 µM

*Q* Enter TGI (test system PC-3 prostate) for Oc1c(C2=NNC(c3ccc(Cl)cc3Cl)C2)ccc2ccccc12 (configuration not stated)
*A* > 100 µM

*Q* Enter TGI (test system PC-3 prostate) for O=C(Nc1ccc(Cl)cc1F)c1ccccc1O
*A* 10.9 µM

*Q* Enter TGI (test system PC-3 prostate) for Cn1nc(N)c2cc([C@@H]3Nc4ccc5[nH]ncc5c4[C@H]4C5CCC(C5)[C@@H]34)ccc21 (some centres not stated)
*A* 19.8 µM

*Q* Enter TGI (test system PC-3 prostate) for Nc1ccc(Oc2ccc(C34CC5CC6C3CC3CC4C(C5)C6(c4ccc(Oc5ccc(N)cc5)cc4)C3)cc2)cc1
*A* 51.7 µM

*Q* Enter TGI (test system PC-3 prostate) for CN(C(=O)C1=CCC2(CC1)OCCO2)c1ccccc1OS(=O)(=O)C(F)(F)F
*A* > 100 µM

*Q* Enter TGI (test system PC-3 prostate) for COc1cc(C#CC(=O)OC/C=C/c2ccc3c(c2)OCO3)cc(OC)c1OC
*A* 72.3 µM

*Q* Enter TGI (test system PC-3 prostate) for O=C(C=P(c1ccccc1)(c1ccccc1)c1ccccc1)c1ccc(-c2cccc([N+](=O)[O-])c2)s1
*A* > 100 µM

*Q* Enter TGI (test system PC-3 prostate) for OCC1OC(c2cccc3cc(O)c(O)cc23)CC1O (configuration not stated)
*A* > 100 µM

*Q* Enter TGI (test system PC-3 prostate) for O=C(O)CCC(=O)c1ccc[nH]1
*A* > 100 µM

*Q* Enter TGI (test system PC-3 prostate) for CCOC(=O)c1c(NC(=O)c2cccs2)sc2c1CCCC2
*A* > 100 µM

*Q* Enter TGI (test system PC-3 prostate) for [Cl][Hg][c]1cc(Br)cc(Br)c1
*A* 7.2 µM

*Q* Enter TGI (test system PC-3 prostate) for CCCCc1c(N(C)C)c(OC(C)=O)c(-c2cn(C)c3ccccc23)oc1=O
*A* 50.9 µM

*Q* Enter TGI (test system PC-3 prostate) for CNC(=O)N(C)N=NCCCl
*A* > 100 µM

*Q* Enter TGI (test system PC-3 prostate) for Cn1cc(CO)c2c1C(=O)C=C(N1CC1)C2=O
*A* 0.128 µM

*Q* Enter TGI (test system PC-3 prostate) for NC(=O)NC1C(c2ccccc2)=C1c1ccccc1
*A* 39.4 µM

*Q* Enter TGI (test system PC-3 prostate) for O=C(OC(CNc1cc(=O)n(Cc2ccccc2)c(=O)n1Cc1ccccc1)CN1CCCC1)c1ccccc1 (configuration not stated)
*A* > 100 µM

*Q* Enter TGI (test system PC-3 prostate) for CCc1cc2c(oc3cc4ccccc4cc32)c(=O)[nH]1
*A* > 10 µM

*Q* Enter TGI (test system PC-3 prostate) for COC(=O)CC(C#N)(OP1(=O)OC(c2ccccc2)C(C)N1C)c1ccccc1 (configuration not stated)
*A* > 100 µM

*Q* Enter TGI (test system PC-3 prostate) for CNC(C#N)c1ccc(OC)cc1 (configuration not stated)
*A* > 100 µM

*Q* Enter TGI (test system PC-3 prostate) for C=C1C(=O)OC2CCN3CC=C(COC(=O)C(C)(O)C4(CO4)C1C)C23 (configuration not stated)
*A* > 100 µM

*Q* Enter TGI (test system PC-3 prostate) for Cn1c2ccccc2c2c3c(c4c5cc(Br)ccc5n(C)c4c21)C(=O)N(O)C3=O
*A* > 100 µM

*Q* Enter TGI (test system PC-3 prostate) for CCN(CC)c1ccc2c(c1)OC(N)=C(C#N)C2c1cc(OC)c2c(c1)OCO2 (configuration not stated)
*A* > 100 µM

*Q* Enter TGI (test system PC-3 prostate) for N#Cc1nc2ccccc2nc1N1CCN(c2ccc([N+](=O)[O-])cc2)CC1
*A* > 100 µM

*Q* Enter TGI (test system PC-3 prostate) for CCOC(=O)c1c(-c2ccc(OC)cc2)c(C#N)c(=S)n(C2OC(COC(C)=O)C(OC(C)=O)C(OC(C)=O)C2OC(C)=O)c1-c1ccccc1 (configuration not stated)
*A* > 100 µM

*Q* Enter TGI (test system PC-3 prostate) for NS(=O)(=O)c1ccc(N=Nc2nc3[nH]c(=O)[nH]c(=O)c3[nH]2)cc1
*A* > 100 µM

*Q* Enter TGI (test system PC-3 prostate) for CN1CCN(C(=O)CCNC(=O)Cc2ccc(C(=O)c3ccccc3)cc2)CC1
*A* > 100 µM

*Q* Enter TGI (test system PC-3 prostate) for O=C(O)C1C2C=CC(O2)C1C(=O)NCc1ccccn1 (configuration not stated)
*A* > 100 µM

*Q* Enter TGI (test system PC-3 prostate) for O=C1NC(NNc2ccccc2)=N/C1=C\c1ccccc1O
*A* 82 µM

*Q* Enter TGI (test system PC-3 prostate) for COc1cc(N(CCC#N)CCC#N)ccc1/C(N=Nc1ccc([N+](=O)[O-])cc1)=N/NC(=O)c1cc(Br)ccc1O
*A* > 150 µg/mL

*Q* Enter TGI (test system PC-3 prostate) for COc1cnc2c(c1)C(=O)c1c-2n(CCCNC(C)C)c(=O)c2cc(Cl)ccc12
*A* 2.57 µM

*Q* Enter TGI (test system PC-3 prostate) for CC1(c2cccs2)CC(c2cccs2)=C(C#N)C(=C(C#N)C#N)N1 (configuration not stated)
*A* 29.8 µM

*Q* Enter TGI (test system PC-3 prostate) for C=CCCCCC/C=C\[C@H](O)C#CC#C/C=C/CO
*A* 36.1 µM

*Q* Enter TGI (test system PC-3 prostate) for O=C(Nc1nc2ccc(C(F)(F)F)cc2s1)c1cc(Cl)ccc1O
*A* 11.9 µM

*Q* Enter TGI (test system PC-3 prostate) for O=C(O)c1ccc(N=C(C(=Nc2ccc(C(=O)O)cc2)c2ccccc2)c2ccccc2)cc1
*A* > 100 µM

*Q* Enter TGI (test system PC-3 prostate) for N=C1/C(=C/c2ccc(F)cc2)C(=O)N=C2SC=NN12
*A* > 100 µM

*Q* Enter TGI (test system PC-3 prostate) for N#CC(=C1C=CC(=NO)C=C1)c1ccccc1
*A* 17 µM

The measurements presented in this section are drawn from PubChem BioAssay (NCI).
